Reported pIC50 values for a set of molecules
Biological target: Recombinant full length human OGA enzyme (Homo sapiens)
Construct: Recombinant full length human OGA enzyme was purchased from Origene
Test: OGA Enzyme Inhibition Biochemical Assay
Settings: 1 nM OGA, 100 μM 4-MUGlcNAc (Km), pH 6.4, 90 minutes at room temperature, 10-point dose-response from 20 μM
Procedure: OGA Enzyme Inhibition Biochemical Assay Recombinant full length human OGA enzyme was purchased from Origene. 4-MUGlCNAc substrate was purchased from Sigma. All other reagents were purchased from Sigma or Fisher. […] Reactions were incubated for 90 minutes at room temperature and quenched with 40 μl of 3M glycine, pH 10 and read on a Perkin Elmer Envision plate reader (Ex: 355 nm/Em: 460 nm). […]
Please express pIC50 as -log10 of the molar concentration.

Known pIC50 results, listed for orientation:
> print(dat)
                                   molecule  readout.number
1  CC(=O)Nc1ncc(CN2C[C@H](Cc3ncc(F)cn3)C[C@H]2C)s1 (single isomer, unassigned)            9.00
2  CC(=O)Nc1ncc(CN2CC(Cc3ncc(F)cn3)CC[C@@H]2C(F)(F)F)s1 (stereo partly drawn)            6.57
3  CC(=O)Nc1ncc(CN2CCC(Cc3cccc(F)c3)C2)s1 (stereo not drawn)            6.57
4  CC(=O)Nc1ncc(CN2CCCC(Cc3cncs3)C2)s1 (stereo not drawn)            8.40

Query: What measured pIC50 is associated with CC(=O)Nc1nc(F)c(CN2CC[C@H](Cc3ncc(F)cn3)C2)s1 on Recombinant full length human OGA enzyme (Homo sapiens)?
Reply: 8.21

Query: What measured pIC50 is associated with CC(=O)Nc1ncc(CN2CCCC(Cc3noc(C)n3)C2)s1 (stereo not drawn) on Recombinant full length human OGA enzyme (Homo sapiens)?
Reply: 8.03

----------
Reported pIC50 values for a set of compounds
molecular target: Recombinant full length human OGA enzyme (Homo sapiens, UniProt O60502); construct: Recombinant full length human OGA enzyme was purchased from Origene; test: OGA Enzyme Inhibition Biochemical Assay; conditions: 1 nM OGA, 100 μM 4-MUGlcNAc (Km), pH 6.4, 90 minutes at room temperature, 10-point dose-response from 20 μM
Sequence (O60502 whole entry): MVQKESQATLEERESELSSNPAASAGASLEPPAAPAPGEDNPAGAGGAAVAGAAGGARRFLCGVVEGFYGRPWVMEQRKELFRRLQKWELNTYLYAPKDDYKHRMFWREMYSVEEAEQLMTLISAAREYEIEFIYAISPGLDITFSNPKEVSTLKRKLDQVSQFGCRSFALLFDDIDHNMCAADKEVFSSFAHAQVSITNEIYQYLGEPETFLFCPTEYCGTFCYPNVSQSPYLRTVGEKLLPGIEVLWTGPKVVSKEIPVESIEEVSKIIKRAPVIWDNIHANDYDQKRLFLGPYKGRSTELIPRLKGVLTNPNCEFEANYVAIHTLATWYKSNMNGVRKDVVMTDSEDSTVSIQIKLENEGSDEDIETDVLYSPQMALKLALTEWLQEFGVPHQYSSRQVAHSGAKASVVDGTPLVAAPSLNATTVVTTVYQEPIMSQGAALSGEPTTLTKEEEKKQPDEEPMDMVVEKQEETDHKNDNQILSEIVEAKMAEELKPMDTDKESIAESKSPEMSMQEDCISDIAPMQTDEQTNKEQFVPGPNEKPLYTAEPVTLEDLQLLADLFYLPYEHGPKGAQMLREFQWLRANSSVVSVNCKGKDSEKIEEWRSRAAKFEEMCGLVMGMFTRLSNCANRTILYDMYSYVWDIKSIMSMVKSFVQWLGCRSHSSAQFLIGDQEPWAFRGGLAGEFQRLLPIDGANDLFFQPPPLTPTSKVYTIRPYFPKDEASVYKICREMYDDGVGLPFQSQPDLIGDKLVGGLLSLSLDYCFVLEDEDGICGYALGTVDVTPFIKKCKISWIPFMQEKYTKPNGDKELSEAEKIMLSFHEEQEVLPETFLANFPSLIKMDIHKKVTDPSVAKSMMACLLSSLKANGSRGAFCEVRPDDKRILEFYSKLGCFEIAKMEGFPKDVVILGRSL
Please express pIC50 as -log10 of the molar concentration.

Known pIC50 results, listed for orientation:
> print(dat)
                                   compound  observed.property  readout.number
1  COc1nc(C[C@H]2CCCN(Cc3cnc(NC(C)=O)s3)C2)nc(C)c1F              pIC50            9.00
2  CC(=O)Nc1ncc(CN2CCCC(Cc3cccc(F)c3)C2)s1 (centres unmarked)              pIC50            7.21
3  CC(=O)Nc1ncc(CN2CCCC(Cc3ccccc3)C2)s1 (centres unmarked)              pIC50            7.28
4  COc1ccnc(CC2CCCN(Cc3cnc(NC(C)=O)s3)C2)c1 (centres unmarked)              pIC50            7.92
5  COc1cccc(CC2CCN(Cc3cnc(NC(C)=O)s3)C2)n1 (centres unmarked)              pIC50            7.77
6  CC(=O)Nc1ncc(CN2C[C@@H](Cc3noc(C)n3)C[C@@H]2C)s1              pIC50            8.72

In the following, a different compound is considered.
Query: What measured pIC50 is associated with CC(=O)Nc1ncc(CN2CCC[C@@H]([C@H](C)c3ncc(F)cn3)C2)s1 (single isomer, unassigned) on Recombinant full length human OGA enzyme (Homo sapiens, UniProt O60502)?
Reply: 7.49

----------
target: Recombinant full length human OGA enzyme (Homo sapiens, UniProt O60502); construct: Recombinant full length human OGA enzyme was purchased from Origene; assay: OGA Enzyme Inhibition Biochemical Assay; conditions: 1 nM OGA, 100 μM 4-MUGlcNAc (Km), pH 6.4, 90 minutes at room temperature, 10-point dose-response from 20 μM
pIC50: −log10 of the molar value.
Note: every record was labeled by where its pIC50 sits among low interval (below 7), middle interval (7 to below 8), high interval (8 or more)

Use the examples below as a reference point.
> print(dat)
                                   molecule  qualitative.label
1  CC(=O)Nc1ncc(CN2CCCC(Cc3nnc4ccccn34)C2)s1 (stereo not drawn) [Example 4-23]    middle interval
2  CC(=O)Nc1ncc(CN2CCCC(Cc3ncnc4ccsc34)C2)s1 (stereo not drawn) [Example 1-44]      high interval
3  CC(=O)Nc1nc(F)c(CN2CCC[C@H](Cc3cc(C)nc(C)n3)C2)s1 [Example 3-21]      high interval
4  CC(=O)Nc1ncc(CN2CC[C@H](C)[C@@H](Cc3ncc(F)cn3)C2)s1 (single isomer, unassigned) [Example 2-38]    middle interval
5  CC(=O)Nc1ncc(CN2CCC(C)(Cc3ncc(F)cn3)C2)s1 (stereo not drawn) [Example 2-35]       low interval
6  CC(=O)Nc1ncc(CN2CCCC(Cn3cc(C4CC4)cn3)C2)s1 (stereo not drawn) [Example 4-6]       low interval
7  CC(=O)Nc1nc(F)c(CN2CC[C@H](Cc3cc(C)ncc3Cl)C2)s1 [Example 3-30]      high interval
8  CC(=O)Nc1ncc(CN2CC(Cc3ncc(F)cn3)C(F)(F)C2)s1 (stereo not drawn) [Example 3-3]       low interval

Query: Please report the category associated with COc1ccc(CC2CCCN(Cc3cnc(NC(C)=O)s3)C2)nc1 (stereo not drawn) [Example 1-10] , nothing else.
Reply: middle interval

----------
Reported log10 of IC50 values for a set of molecules
molecular target: Recombinant full length human OGA enzyme (Homo sapiens, UniProt O60502); construct: Recombinant full length human OGA enzyme was purchased from Origene; assay: OGA Enzyme Inhibition Biochemical Assay; conditions: 1 nM OGA, 100 μM 4-MUGlcNAc (Km), pH 6.4, 90 minutes at room temperature, 10-point dose-response from 20 μM
In our notation, the value equals log10 of IC50 in nM.

> print(dat)
                                   molecule  observed.property  readout.number
1  CC(=O)Nc1ncc(CN2C[C@H](Cc3ncc(F)cn3)C[C@@H]2C(F)(F)F)s1 (single isomer, unassigned) [Example 2-47]      log10 of IC50            3.08
2  COc1ccc(CC2CCN(Cc3cnc(NC(C)=O)s3)C2)cn1 (centres unmarked) [Example 1-23]      log10 of IC50            1.23

Query: What measured log10 of IC50 is associated with CC(=O)Nc1ncc(CN2CCCC(Cn3cc(C)cn3)C2)s1 (centres unmarked) [Example 4-10] on Recombinant full length human OGA enzyme (Homo sapiens, UniProt O60502)?
Reply: 2.36

Query: What measured log10 of IC50 is associated with CC(=O)Nc1ncc(CN2CCC[C@H](Cc3ccc(C(F)F)cn3)C2)s1 [Example 3-5] on Recombinant full length human OGA enzyme (Homo sapiens, UniProt O60502)?
Reply: 0.30

Query: What measured log10 of IC50 is associated with CC(=O)Nc1ncc(CN2CCC[C@@H]([C@@H](C)c3ncc(F)cn3)C2)s1 (single isomer, unassigned) [Example 2-29] on Recombinant full length human OGA enzyme (Homo sapiens, UniProt O60502)?
Reply: 0.00

Query: What measured log10 of IC50 is associated with CC(=O)Nc1ncc(CN2CCC[C@H](Cc3ncc(F)cn3)C2)s1 [Example 3-1] on Recombinant full length human OGA enzyme (Homo sapiens, UniProt O60502)?
Reply: 0.00

Query: What measured log10 of IC50 is associated with CC(=O)Nc1ncc(CN2CCCC(Cc3cncc(F)c3)C2)s1 (centres unmarked) [Example 1-12] on Recombinant full length human OGA enzyme (Homo sapiens, UniProt O60502)?
Reply: 0.85

Query: What measured log10 of IC50 is associated with CC(=O)Nc1ncc(CN2CC(Cc3ncc(F)cn3)CC2C)s1 (centres unmarked) [Example 2-17] on Recombinant full length human OGA enzyme (Homo sapiens, UniProt O60502)?
Reply: 0.30

Query: What measured log10 of IC50 is associated with CCc1cc2c(CC3CCCN(Cc4cnc(NC(C)=O)s4)C3)ncnc2s1 (centres unmarked) [Example 1-41] on Recombinant full length human OGA enzyme (Homo sapiens, UniProt O60502)?
Reply: 0.00

Query: What measured log10 of IC50 is associated with CC(=O)Nc1ncc(CN2C[C@H](Cc3ncc(F)cn3)C[C@@H]2C)s1 (single isomer, unassigned) [Example 2-18] on Recombinant full length human OGA enzyme (Homo sapiens, UniProt O60502)?
Reply: 2.55

Query: What measured log10 of IC50 is associated with CC(=O)Nc1ncc(CN2CCCC(Cn3cc(C(C)C)cn3)C2)s1 (centres unmarked) [Example 4-7] on Recombinant full length human OGA enzyme (Homo sapiens, UniProt O60502)?
Reply: 2.58

Query: What measured log10 of IC50 is associated with CC(=O)Nc1nnc(CN2CCC[C@H](Cc3ncc(F)cn3)C2)s1 (stereo in doubt) [Example 3-14] on Recombinant full length human OGA enzyme (Homo sapiens, UniProt O60502)?
Reply: 1.08

Query: What measured log10 of IC50 is associated with CC(=O)Nc1ncc(CN2CCCC(Cc3cccnc3)C2)s1 (centres unmarked) [Example 1-27] on Recombinant full length human OGA enzyme (Homo sapiens, UniProt O60502)?
Reply: 1.04

Query: What measured log10 of IC50 is associated with CC(=O)Nc1ncc(CN2CCC(C(C)c3ncc(F)cn3)C2)s1 (centres unmarked) [Example 2-36] on Recombinant full length human OGA enzyme (Homo sapiens, UniProt O60502)?
Reply: 0.00
